Read-out: UDP glucuronosyltransferase (UGT1A6), UGT1A6 (gene 54578)
Assay Comment: LTEA_HepaRG_UGT1A6: Life Technologies and Expression Analysis (LTEA) Assay for UDP glucuronosyltransferase (UGT1A6) using HepaRG (AID 2283539)
Experimental Context: mRNA level, 48 h; actives raise or lower the signal
Active and inactive are the calls of the source. The calls were made as follows: active = hit-call score of the fitted dose curve at least 0.9, where 1 is the maximum; inactive = score below 0.9.
Your reply should match one of these outcome classes. 1 (active), -1 (inactive)

>>> print(df.to_string())
                                   compound  assigned_label
0  CS(=O)(=O)c1cc(C(F)(F)F)ccc1C(=O)c1cnoc1C1CC1              -1
1         N#Cc1c[nH]cc1-c1cccc2c1OC(F)(F)O2              -1
2                 N#CN=C1SCCN1Cc1ccc(Cl)nc1              -1
3  CCCN(CC)CC1COC2(CCC(C(C)(C)C)CC2)O1 (stereo not drawn)              -1
4  COCc1cnc(C2=NC(C)(C(C)C)C(=O)N2)c(C(=O)O)c1 (stereo not drawn)              -1
5                         CCSC(=O)N1CCCCCC1              -1
6    CC(C)Oc1cccc(NC(=O)c2ccccc2C(F)(F)F)c1              -1
7                CC1(C)CON(Cc2ccccc2Cl)C1=O              -1
8  CC1(C)C(C(=O)OC(C#N)c2cccc(Oc3ccccc3)c2)C1(C)C (stereo not drawn)              -1
9             CC(C)N1C(=O)c2ccccc2NS1(=O)=O              -1

In the following, a different compound is considered.
query: Returns: the outcome recorded for Cc1cnc(C2=NC(C)(C(C)C)C(=O)N2)c(C(=O)O)c1 (stereo not drawn) in this assay.
result: -1

----------
Assay Comment: CCTE_Shafer_MEA_acute_firing_rate_mean: CCTE's Neural Acute Assay for Mean Firing Rate, Shafer Lab (AID 2284009);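 also: analyzed for loss of signal so actives lower firing rate relative to DMSO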
Calls of active or inactive are those of the source. How the source made its calls: active means hit-call score of the fitted dose curve at least 0.9, where 1 is the maximum; inactive means score below 0.9.
Quantity Measured: AC50

Recorded AC50, per entry:
>>> print(df.to_string())
                                   compound  reported_result
0  CCOc1nc(F)cc2nc(S(=O)(=O)Nc3c(Cl)cccc3Cl)nn12         inactive
1  CCCCC(O)(Cn1cncn1)c1ccc(Cl)cc1Cl (configuration not stated)         inactive
2                 N#CN=C1SCCN1Cc1ccc(Cl)nc1         inactive
3        CN/C(=N\[N+](=O)[O-])NCc1cnc(Cl)s1         inactive
4  CC(C)=CC1C(C(=O)OCc2coc(Cc3ccccc3)c2)C1(C)C (configuration not stated)         inactive
5  CC1(C)CCC(=Cc2ccc(Cl)cc2)C1(O)Cn1cncn1 (configuration not stated)         inactive

Please go through the list and note AC50 for each compound.
1. CC1(C)C(C=C(Cl)Cl)C1C(=O)OC(C#N)c1cccc(Oc2ccccc2)c1 (configuration not stated)
2. COCC(=O)N(c1c(C)cccc1C)C(C)C(=O)OC (configuration not stated)
3. Nc1c(Cl)c(F)nc(OCC(=O)O)c1Cl
4. COP(=S)(OC)SCn1nnc2ccccc2c1=O

result:
1: inactive; 2: inactive; 3: inactive; 4: inactive

Please go through the list and note AC50 for each compound.
1. Cn1c(-c2ccccc2)cc(-c2ccccc2)[n+]1C
2. CCOc1cc(C(C)(C)C)ccc1C1COC(c2c(F)cccc2F)=N1 (configuration not stated)

result:
1050 nM (active)
3320 nM (active)
